# TARGET_DESC: PpKAI2-like L
# MEASUREMENT_NOTES: Fluorescence-based equilibrium microdialysis, KAR1 binding
MEASUREMENT_NAME: Kd (µM)
Answers are plain numbers, in µM.

Q: Give reported Kd value for Cc1c2ccocc-2oc1=O [KAR1]
A: 5.2
